target: Atrial natriuretic peptide receptor 2 (Homo sapiens); assay: Natriuretic polypeptide receptor (hNpr2) antagonism - Subtype selectivity assay; details: HEK293 hNpr2 GloSensor cGMP luminescence, CNP-stimulated; series mostly up to 57.6 µM; also: nearly all actives have a fitted effect of over 70% in size
Screen size: about 1,400 compounds; about 940 (67%) were called active. Inconclusive results (about 27%) are left out. Calls follow the shape of the full dose curve. The set was probably picked from earlier hits. Not all results are given here.
One label from this list, please: YES (active), NO (inactive)

Answered cases to consult:
// outcome(item) with item = CN1CCN(C(=O)C(C)(C)Oc2nn(Cc3cccc(Cl)c3)c3ccccc23)CC1
YES

// outcome(item) with item = CC(C)(C)c1csc(NC(=O)c2ccc3c(c2)OCCN(C2CCC2)C3)n1
YES

// outcome(item) with item = O=C(c1cc(F)ccc1Cl)N1CCN(c2cc(-c3ccc(F)cc3)[nH]n2)CC1
YES

// outcome(item) with item = Cc1ccc(C(=O)N2CCN(c3cc(-c4ccc(Cl)cc4)[nH]n3)CC2)c(C)c1
YES

// outcome(item) with item = O=C(Cc1c[nH]c2ncc(-c3ccccc3F)cc12)N1CCOCC1
YES

New cases:
// outcome(item) with item = COc1ccc(-c2noc(CC3CCN(C(=O)Cc4ccc(OC)c(OC)c4)CC3)n2)cc1
YES

// outcome(item) with item = COc1ccccc1Nc1cnc2ccc(N(C)Cc3cccnc3)nn12
YES

// outcome(item) with item = CC1=NS(=O)(=O)N(C)C=C1C(=O)OCc1nc(-c2ccc(C)cc2)no1
YES

// outcome(item) with item = COc1ccc(-c2noc(CC3CCN(C(=O)CC4CCCCC4)CC3)n2)cc1
YES

// outcome(item) with item = CCc1ccc(C(=O)N2CCN(c3cc(-c4ccc(F)cc4)[nH]n3)CC2)cc1
YES

// outcome(item) with item = Cc1c[nH]c(CN2CCCC(CCc3ccc(F)cc3F)C2)c(C)c1=O (stereo not given)
YES

// outcome(item) with item = O=C(NCc1nnc2cc(-c3nc(C4CC4)no3)ccn12)c1ccc(F)cc1Cl
YES

// outcome(item) with item = O=C(c1ccc2cc[nH]c2c1)N1CCC2(CC1)N=C(c1ccc(Cl)cc1)NO2
YES

// outcome(item) with item = O=[S+]1([O-])NCC2(CCCN(Cc3ccc(C(F)(F)F)cc3)C2)Oc2ncccc21 (stereo not given)
YES

// outcome(item) with item = COc1cccc(CNC(=O)Cn2c(N(C)Cc3ccccc3)nc(C)cc2=O)c1OC
YES

// outcome(item) with item = COc1ccc(C(=O)N2CCC(n3cc(-c4nc(C(C)C)no4)nn3)CC2)cc1F
NO

// outcome(item) with item = COc1ccc(CN2C(=O)CO[C@H]3CN(Cc4ccc5c(c4)OCO5)C[C@H]32)cc1
YES

// outcome(item) with item = O=C(c1ccccc1)N1CCC(C(=O)N2CCC(Cc3nc(-c4ccc(F)cc4)no3)CC2)CC1
YES

// outcome(item) with item = COc1ccc(C2Cn3nnc(C(=O)N4CCN(C(=O)c5cccc(Cl)c5)CC4)c3CO2)cc1 (stereo not given)
YES

---

biological target: Atrial natriuretic peptide receptor 2 (Homo sapiens) (UniProt P20594); assay: Natriuretic polypeptide receptor (hNpr2) antagonism - Subtype selectivity assay; details: HEK293 hNpr2 GloSensor cGMP luminescence, CNP-stimulated; series mostly up to 57.6 µM; also: nearly all actives have a fitted effect of over 70% in size; also: potency is read from the fitted curve at half-maximal effect
Sequence (P20594 whole entry, looked up): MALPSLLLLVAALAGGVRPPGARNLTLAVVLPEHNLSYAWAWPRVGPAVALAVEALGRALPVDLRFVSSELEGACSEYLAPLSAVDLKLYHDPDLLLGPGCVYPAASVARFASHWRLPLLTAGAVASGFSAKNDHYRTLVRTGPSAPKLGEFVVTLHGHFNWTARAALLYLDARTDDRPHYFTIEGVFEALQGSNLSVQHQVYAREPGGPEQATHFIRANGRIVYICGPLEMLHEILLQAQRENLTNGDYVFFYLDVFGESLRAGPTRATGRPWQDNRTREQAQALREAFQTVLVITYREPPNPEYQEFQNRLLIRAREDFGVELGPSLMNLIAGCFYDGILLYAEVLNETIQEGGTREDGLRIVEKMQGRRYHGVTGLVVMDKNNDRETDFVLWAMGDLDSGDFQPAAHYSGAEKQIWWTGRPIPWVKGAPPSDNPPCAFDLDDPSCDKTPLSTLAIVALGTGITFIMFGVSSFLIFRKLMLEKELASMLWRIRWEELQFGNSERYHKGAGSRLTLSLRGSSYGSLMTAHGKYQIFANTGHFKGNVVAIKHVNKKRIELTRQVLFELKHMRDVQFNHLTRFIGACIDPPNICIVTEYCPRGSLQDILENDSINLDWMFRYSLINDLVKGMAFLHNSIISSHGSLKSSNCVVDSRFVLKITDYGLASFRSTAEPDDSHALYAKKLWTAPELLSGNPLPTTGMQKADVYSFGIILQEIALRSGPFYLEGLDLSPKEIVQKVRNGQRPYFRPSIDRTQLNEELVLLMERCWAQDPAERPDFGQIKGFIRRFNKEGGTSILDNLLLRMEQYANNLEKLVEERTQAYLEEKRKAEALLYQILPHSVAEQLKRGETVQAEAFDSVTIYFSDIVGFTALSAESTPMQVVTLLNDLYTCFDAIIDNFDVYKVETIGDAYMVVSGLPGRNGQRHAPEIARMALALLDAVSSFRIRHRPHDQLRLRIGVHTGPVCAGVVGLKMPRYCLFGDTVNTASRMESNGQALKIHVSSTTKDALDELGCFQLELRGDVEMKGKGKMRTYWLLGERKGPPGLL
The campaign covered roughly 1,400 compounds. About 940 (67%) were called active. Roughly 27% stayed inconclusive and do not appear here. So high a share suggests a set chosen from earlier hits. The list is a sample of the results.
PROPERTY NAME: Potency

// below: answered compounds
Please list Potency recorded for the compound Cc1cccc(CN2CCc3nc(C(=O)Nc4ccc(Cl)cc4)oc3CC2)c1
12.5 µM (active)

Please list Potency recorded for the compound O=c1[nH]c(C2CCCN(Cc3ccccn3)C2)nn1-c1ccc(Cl)cc1 (stereo unspecified)
10.9 µM (active)

Please list Potency recorded for the compound Cc1cc(N2CCCC(Cn3cc(Cc4ccccc4)nn3)C2)nc(N)n1 (stereo unspecified)
9.68 µM (active)

Please list Potency recorded for the compound O=C(c1ccc(Cl)cc1)N1CCCC(n2cc(-c3nc(-c4ccccc4)no3)nn2)C1 (stereo unspecified)
21.7 µM (active)

Please list Potency recorded for the compound COc1ccc(CCNC(=O)c2noc(-c3ccc(C)cc3)n2)cc1OC
21.7 µM (active)

Please list Potency recorded for the compound O=C(c1ccccn1)N1CC(Oc2ccc(-c3noc(C4CC4)n3)cc2)C1
19.3 µM (active)

New cases:
Please list Potency recorded for the compound Cc1ccc(OCc2nc(C3CCN(C(=O)CCc4nc5ccc(Cl)cc5[nH]4)CC3)no2)cc1
24.3 µM (active)

Please list Potency recorded for the compound COc1ccc(OCC2(C)COc3ccc(C(=O)Nc4cccnc4)cc3N2)cc1 (stereo unspecified)
35.3 µM (active)

Please list Potency recorded for the compound CC(C)c1cc(C(=O)N2CCC(n3cc(-c4ccccn4)nn3)CC2)n(C)n1
19.3 µM (active)

Please list Potency recorded for the compound O=C(c1ccc(F)cc1Cl)N1CCC(n2cc(-c3nc(-c4ccccc4)no3)nn2)C1 (stereo unspecified)
5.44 µM (active)

Please list Potency recorded for the compound CC1(C(=O)NCc2ccc3c(c2)OCO3)CCc2cnc(NCc3ccccc3)nc21 (stereo unspecified)
35.3 µM (active)
